# melting point values compiled below

Below, 2 molecules whose answers are already recorded.
| molecule | melting point |
| --- | --- |
| CC(=O)OCC1C(O)C2OC(C)(C)OC2C2NC(=O)c3cc4c(cc3C12)OCO4 (centres undefined) | > 200 °C |
| Cc1[nH]c2ccc(/C=C/C(=O)OCc3ccccc3)cc2c1CN(C)C | 174 to 177 °C |

(Q) So what's the measured melting point for this one? Cc1noc(NS(=O)(=O)c2ccc(-c3ccccn3)s2)c1Br
(A) 186 to 188 °C

(Q) Looking for the measured melting point of CC1C(=O)NC2=NC=CCN21 (centres undefined) , can you help?
(A) 212 °C

The measurements presented in this section are drawn from a melting point compilation (Tetko et al.; mined from patent text by program, amines drawn as free bases though some values may be those of a salt).
